Assay: activity coefficient (dimensionless); of the first substance listed, at infinite dilution; xn = mol fraction of the nth substance listed
Conditions: 333.15 K; 101.33 kPa; Liquid; Chromatography; x1 = 0
Readout Type: activity coefficient
Numbers only.

Take each entry in turn and give its activity coefficient.
1. CCCCCCCCCC [decane] + CC(CC(C)(C)C)CP(=O)([O-])CC(C)CC(C)(C)C.CCCCCCCCCCCCCC[P+](CCCCCC)(CCCCCC)CCCCCC
2. CC#N [acetonitrile] + CC(CC(C)(C)C)CP(=O)([O-])CC(C)CC(C)(C)C.CCCCCCCCCCCCCC[P+](CCCCCC)(CCCCCC)CCCCCC
3. Cc1cccc(C)c1 [1,3-dimethylbenzene] + CC(CC(C)(C)C)CP(=O)([O-])CC(C)CC(C)(C)C.CCCCCCCCCCCCCC[P+](CCCCCC)(CCCCCC)CCCCCC
4. Cc1ccccc1 [toluene] + CC(CC(C)(C)C)CP(=O)([O-])CC(C)CC(C)(C)C.CCCCCCCCCCCCCC[P+](CCCCCC)(CCCCCC)CCCCCC

### Response
1.33
1.41
0.67
0.56

* * *

For each record, write down the corresponding activity coefficient.
Assay: activity coefficient (dimensionless); of the first substance listed, at infinite dilution; xn = mol fraction of the nth substance listed
Conditions: 313.15 K; 101.33 kPa; Liquid; Chromatography; x1 = 0
Give bare numbers.

Below: 3 compounds and their reported activity coefficient.
CC(C)CC(C)(C)C [2,2,4-trimethylpentane] + CC(CC(C)(C)C)CP(=O)([O-])CC(C)CC(C)(C)C.CCCCCCCCCCCCCC[P+](CCCCCC)(CCCCCC)CCCCCC; 0.92
CC(C)=O [acetone] + CC(CC(C)(C)C)CP(=O)([O-])CC(C)CC(C)(C)C.CCCCCCCCCCCCCC[P+](CCCCCC)(CCCCCC)CCCCCC; 0.7
CC1CCCCC1 [methylcyclohexane] + CC(CC(C)(C)C)CP(=O)([O-])CC(C)CC(C)(C)C.CCCCCCCCCCCCCC[P+](CCCCCC)(CCCCCC)CCCCCC; 0.64

API: the following record is the query input.
The reported activity coefficient of the compound CCC(C)=O [butanone] + CC(CC(C)(C)C)CP(=O)([O-])CC(C)CC(C)(C)C.CCCCCCCCCCCCCC[P+](CCCCCC)(CCCCCC)CCCCCC was 0.65
